Give measured AUC(0-t) at 24 h for each item. Keep answers brief.
assay_notes: AUC (0 to t) in Beagle dog at 5 mg/kg, po measured upto 24 hrs by LC-MS/MS analysis
Type: ADME, organism-based, Canis lupus familiaris
Design: dose 5 mg/kg, time < 24 hrs, route po
stated_conditions: in vivo
Express it in ng·h/mL; write the number only.

Form field AUC(0-t) at 24 h, entry N#Cc1ccc2[nH]cc(CCCCN3CCN(c4ncc(-c5ccc(F)cc5F)cn4)CC3)c2c1 : 7540

Briefly, AUC(0-t) at 24 h measured for N#Cc1ccc2[nH]cc(CCCCN3CCN(c4ccc5oc(C(N)=O)cc5c4)CC3)c2c1 : 2020

Noted for N#Cc1ccc2[nH]cc(CCCCN3CCN(c4ncc(-c5ccc(Cl)cc5)cn4)CC3)c2c1 : its AUC(0-t) at 24 h reads 6800

Entry N#Cc1ccc2[nH]cc(CCCCN3CCN(c4ncc(-c5cccc(C(N)=O)c5)cn4)CC3)c2c1 , AUC(0-t) at 24 h reported as 4310

---

assay_notes: Drug concentration in Sprague-Dawley rat brain at 10 mg/kg, ip measured at 120 min by LC/MS-MS analysis
Format: ADME, organism-based
stated_conditions: read-out: Ct
Please go through the items and note down their concentration at 2 h.
Field format: number, assumed ng/g, no unit text.

Entry under test: N#Cc1ccc2[nH]cc(CCCCN3CCN(c4ccc5oc(C(N)=O)cc5c4)CC3)c2c1 . Its concentration at 2 h was 457

Sample N#Cc1ccc2[nH]cc(CCCCN3CCN(c4ncc(-c5ccc(F)cc5F)cn4)CC3)c2c1 ; concentration at 2 h observed: 2960

---

assay_notes: Cmax in Beagle dog at 5 mg/kg, po measured upto 24 hrs by LC-MS/MS analysis
Format: ADME, organism-based, Canis lupus familiaris
Set-up: time < 24 hrs, dose 5 mg/kg, route po
stated_conditions: in vivo
endpoint_name: Cmax (µg/mL)
A number alone suffices; assume µg/mL.

Summary for this molecule, N#Cc1ccc2[nH]cc(CCCCN3CCN(c4ncc(-c5ccc(Cl)cc5)cn4)CC3)c2c1 : Cmax is 0.82

Looking up N#Cc1ccc2[nH]cc(CCCCN3CCN(c4ncc(-c5ccc(F)cc5F)cn4)CC3)c2c1 , I found its Cmax recorded as 0.794

So for N#Cc1ccc2[nH]cc(CCCCN3CCN(c4ncc(-c5cccc(C(N)=O)c5)cn4)CC3)c2c1 , the logged Cmax turned out to be 0.662

Sample N#Cc1ccc2[nH]cc(CCCCN3CCN(c4ccc5oc(C(N)=O)cc5c4)CC3)c2c1 ; Cmax observed: 0.454

---

assay_notes: Drug concentration in Sprague-Dawley rat plasma at 10 mg/kg, ip measured at 15 min by LC/MS-MS analysis
Type: ADME, organism-based
endpoint_name: concentration at 0.25 h (ng/mL)
Give the value, in units of ng/mL, as a plain number.

get_value(item= N#Cc1ccc2[nH]cc(CCCCN3CCN(c4ccc5oc(C(N)=O)cc5c4)CC3)c2c1 , readout=concentration at 0.25 h) returns 1330

Reported concentration at 0.25 h for N#Cc1ccc2[nH]cc(CCCCN3CCN(c4ncc(-c5ccc(F)cc5F)cn4)CC3)c2c1 was 253

---

assay_notes: Oral bioavailability in Sprague-Dawley rat at 2.5 mg/kg measured upto 24 hrs by LC-MS/MS analysis
Assay type: ADME, organism-based
stated_conditions: in vivo
endpoint_name: bioavailability (%)
Record the value in %, omitting the unit from your answer.

What the record says about N#Cc1ccc2[nH]cc(CCCCN3CCN(c4ncc(-c5ccc(F)cc5F)cn4)CC3)c2c1 : bioavailability is 83.3

According to the records, this molecule N#Cc1ccc2[nH]cc(CCCCN3CCN(c4ncc(-c5ccc(Cl)cc5)cn4)CC3)c2c1 displays bioavailability of 52.6

The recorded bioavailability for entry N#Cc1ccc2[nH]cc(CCCCN3CCN(c4ncc(-c5cccc(C(N)=O)c5)cn4)CC3)c2c1 equals 39.2

Lab note: N#Cc1ccc2[nH]cc(CCCCN3CCN(c4ccc5oc(C(N)=O)cc5c4)CC3)c2c1 gave bioavailability of 47.5
